Recorded values, source patent US12440484B2.

- targetSystem: HDAC6 human recombinant (Homo sapiens (Human), UniProt Q9UBN7)
- Sequence (Q9UBN7 whole entry): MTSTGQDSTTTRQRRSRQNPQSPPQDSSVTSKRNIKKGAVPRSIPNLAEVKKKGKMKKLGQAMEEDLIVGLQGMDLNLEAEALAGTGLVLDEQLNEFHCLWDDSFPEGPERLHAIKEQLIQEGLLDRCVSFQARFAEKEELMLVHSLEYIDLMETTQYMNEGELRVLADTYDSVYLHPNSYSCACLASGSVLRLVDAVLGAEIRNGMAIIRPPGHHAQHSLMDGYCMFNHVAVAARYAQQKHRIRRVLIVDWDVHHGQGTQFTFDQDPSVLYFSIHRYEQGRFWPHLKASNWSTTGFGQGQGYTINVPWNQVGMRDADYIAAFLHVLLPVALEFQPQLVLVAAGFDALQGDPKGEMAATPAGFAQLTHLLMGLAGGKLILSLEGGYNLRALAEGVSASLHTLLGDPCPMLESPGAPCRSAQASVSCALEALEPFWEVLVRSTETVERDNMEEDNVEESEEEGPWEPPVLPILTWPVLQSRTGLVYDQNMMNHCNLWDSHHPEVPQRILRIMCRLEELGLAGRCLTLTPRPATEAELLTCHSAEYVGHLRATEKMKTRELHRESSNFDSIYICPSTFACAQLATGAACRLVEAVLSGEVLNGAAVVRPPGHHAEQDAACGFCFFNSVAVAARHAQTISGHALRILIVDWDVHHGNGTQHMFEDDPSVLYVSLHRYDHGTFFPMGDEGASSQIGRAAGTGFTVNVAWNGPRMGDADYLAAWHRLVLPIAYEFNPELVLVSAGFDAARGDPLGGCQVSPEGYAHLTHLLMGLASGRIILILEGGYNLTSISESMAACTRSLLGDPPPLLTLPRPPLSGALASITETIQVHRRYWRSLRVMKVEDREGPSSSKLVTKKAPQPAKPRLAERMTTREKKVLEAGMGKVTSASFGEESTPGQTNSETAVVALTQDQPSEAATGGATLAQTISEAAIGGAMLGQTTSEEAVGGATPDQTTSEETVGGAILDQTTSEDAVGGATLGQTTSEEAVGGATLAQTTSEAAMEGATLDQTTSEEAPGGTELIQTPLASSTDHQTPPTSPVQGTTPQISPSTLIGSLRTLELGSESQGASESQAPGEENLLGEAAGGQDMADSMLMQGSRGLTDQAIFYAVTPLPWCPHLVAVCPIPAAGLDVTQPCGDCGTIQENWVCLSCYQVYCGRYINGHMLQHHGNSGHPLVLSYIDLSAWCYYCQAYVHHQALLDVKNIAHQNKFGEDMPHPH
- protocol: HDAC enzyme activity inhibition (in vitro), HDAC6 assay
- testContext: samples at 0.1, 1, 10, 100 and 1000 nM; 37° C. 60 minutes; fluorescence Ex 390, Em 460
observable: IC50 (nM)

1. CC1(C)C(=O)N(Cc2ccc(-c3nnc(C(F)F)o3)cn2)C(=O)c2ccc(Br)cc21: 65
2. CN(C)[C@H]1CCN(c2ccc3c(c2)C(C)(C)C(=O)N(Cc2ccc(-c4nnc(C(F)F)o4)cn2)C3=O)C1: 29
3. Cn1c(=O)n(Cc2ccc(-c3nnc(C(F)F)o3)cn2)c(=O)c2ccc(-c3ccncc3)cc21: 33
4. CC(C)(C)OC(=O)N1CCC(Cn2c(=O)n(Cc3ccc(-c4nnc(C(F)F)o4)cn3)c(=O)c3cc(F)ccc32)CC1: 310
5. CC1(C)C(=O)N(Cc2ccc(-c3nnc(C(F)F)o3)cn2)C(=O)c2c(-c3ccco3)cccc21: 92
6. CCN1CCN(c2ccc3c(c2)C(CC)(CC)C(=O)N(Cc2ccc(-c4nnc(C(F)F)o4)cn2)C3=O)CC1: 81

(a) COc1ccc(-c2cccc3c2C(=O)N(Cc2ccc(-c4nnc(C(F)F)o4)cn2)C(=O)C3(C)C)cn1
(b) CC(C)N1CCN(c2ccc3c(c2)C(=O)N(Cc2ccc(-c4nnc(C(F)F)o4)cn2)C(=O)C3(C)C)CC1
(c) CC1(C)C(=O)N(Cc2ccc(-c3nnc(C(F)F)o3)cn2)C(=O)c2ccc(-c3ccncc3)cc21
stdin: Hey, can you sort those compounds up there by IC50, smallest first? Would you mind listing the labels in the order requested?
stdout: c, b, a
(c: 10 nM, b: 21 nM, a: 116 nM)

(P) CNC(=O)C1CCN(c2ccc3c(c2)C(C)(C)C(=O)N(Cc2ccc(-c4nnc(C(F)F)o4)cn2)C3=O)CC1
(Q) Cn1c(=O)n(Cc2ccc(-c3nnc(C(F)F)o3)cn2)c(=O)c2ccc(-c3ccccc3F)cc21
(R) CN(C)C(=O)C1CCN(c2ccc3c(c2)C(C)(C)C(=O)N(Cc2ccc(-c4nnc(C(F)F)o4)cn2)C3=O)CC1
(S) CC1(C)C(=O)N(Cc2ccc(-c3nnc(C(F)F)o3)cn2)C(=O)c2cc(-c3cccnc3)ccc21
stdin: // ranking: key=IC50, reverse=True Would you mind listing the labels in the order requested?
stdout: Q, P, R, S

====

- targetSystem: HDAC6 human recombinant (Homo sapiens (Human))
- protocol: HDAC enzyme activity inhibition (in vitro), HDAC6 assay
- testContext: samples at 0.1, 1, 10, 100 and 1000 nM; 37° C. 60 minutes; fluorescence Ex 390, Em 460
observable: IC50 (µM)

Consider the reported IC50 for these compounds:
1) Cn1c(=O)n(Cc2ccc(-c3nnc(C(F)F)o3)cn2)c(=O)c2ccc(-c3ccco3)cc21: 0.047
2) O=C1c2ccccc2C2(CCC2)C(=O)N1Cc1ccc(-c2nnc(C(F)F)o2)cc1: 0.513
3) O=C1Cc2ccccc2C(=O)N1Cc1ccc(-c2nnc(C(F)F)o2)cn1: 0.133
4) CC1(C)C(=O)N(Cc2ccc(-c3nnc(C(F)F)o3)cn2)C(=O)c2ccc(N3C[C@@H]4C[C@H]3CN4S(C)(=O)=O)cc21: 0.014
5) CC(=O)N1CCN(c2ccc3c(c2)C(C)(C)C(=O)N(Cc2ccc(-c4nnc(C(F)F)o4)cn2)C3=O)CC1: 0.027
6) Cn1c(=O)n(Cc2ccc(-c3nnc(C(F)F)o3)cn2)c(=O)c2ccc(C3=CCNCC3)cc21: 0.023
7) CC1(C)C(=O)N(Cc2ccc(-c3nnc(C(F)F)o3)cn2)C(=O)c2cc(-c3ccco3)ccc21: 0.043
8) Cn1c(=O)n(Cc2ccc(-c3nnc(C(F)F)o3)cn2)c(=O)c2ccc(-c3cccnc3)cc21: 0.037
9) CN1CCC(Cn2c(=O)n(Cc3ccc(-c4nnc(C(F)F)o4)cn3)c(=O)c3ccccc32)CC1: 0.196
10) CC(F)(F)CN1CCN(c2ccc3c(c2)C(C)(C)C(=O)N(Cc2ccc(-c4nnc(C(F)F)o4)cn2)C3=O)CC1: 0.096

(P) CC1(C)C(=O)N(Cc2ccc(-c3nnc(C(F)F)o3)cn2)C(=O)c2cc(-c3ccncc3)ccc21
(Q) CC1(C)C(=O)N(Cc2ccc(-c3nnc(C(F)F)o3)cn2)C(=O)c2ccc(N3CCN(CC(=O)N4CCCC4)CC3)cc21
stdin: Between P and Q , which one shows the larger IC50 value? Indicate which entry you chose by stating its label.
stdout: Q
(Q: 0.034 µM, P: 0.015 µM)

(I) Cn1c(=O)n(Cc2ccc(-c3nnc(C(F)F)o3)cn2)c(=O)c2cc(F)ccc21
(II) CC1(C)C(=O)N(Cc2ccc(-c3nnc(C(F)F)o3)cn2)C(=O)c2cc(-c3cccc(F)c3)ccc21
stdin: I'm curious whether I or II has the smaller IC50 number. Which is it? Indicate which entry you chose by stating its label.
stdout: I
